biological target: Proteasome chymotrypsin-like activity (S26 protein from RPMI8226 cells) (Homo sapiens, UniProt P28074)
Sequence (P28074 60-263 limits assumed): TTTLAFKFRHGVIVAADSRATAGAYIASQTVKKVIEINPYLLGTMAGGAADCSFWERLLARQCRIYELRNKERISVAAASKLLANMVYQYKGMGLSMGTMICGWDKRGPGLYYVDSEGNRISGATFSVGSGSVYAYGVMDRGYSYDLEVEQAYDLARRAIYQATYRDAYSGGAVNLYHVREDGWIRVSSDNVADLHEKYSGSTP
pIC50: −log10 of the molar value.
Readout name: pIC50

Known results for compounds:
Cc1cc(C(=O)NCC2=NOC(Cc3ccccc3)(C(=O)N[C@@H](CC(C)C)B(O)O)C2)n(-c2ccc(F)cc2)n1 (some centres unmarked) [Example 247] : > 8.00
CC(C)C[C@H](NC(=O)C1(Cc2ccccc2)CC(CNC(=O)c2ccccc2-c2ccccc2)=NO1)B(O)O (some centres unmarked) [Example 97] : > 8.00
CC(C)C[C@H](NC(=O)C1CC(c2cc3ccccc3cn2)=NO1)B(O)O (some centres unmarked) [Example 22] : > 6.60

pIC50 lookup needed for CC(C)C[C@H](NC(=O)C1(Cc2ccccc2)CC(CNC(=O)c2ccnc3c2ccn3C)=NO1)B(O)O (some centres unmarked) [Example 210] , thanks. > 8.00

pIC50 lookup needed for CC(C)C[C@H](NC(=O)C1(Cc2ccccc2)CC(c2cccc(-c3nccc4ccccc34)c2)=NO1)B(O)O (some centres unmarked) [Example 36] , thanks. > 6.60

pIC50 lookup needed for CC(C)C[C@H](NC(=O)C1(Cc2ccccc2)CC(CNC(=O)c2n[nH]c3ccccc23)=NO1)B(O)O (some centres unmarked) [Example 200] , thanks. > 8.00

pIC50 lookup needed for CC(C)C[C@H](NC(=O)C1CC(c2cccc(-c3ccccn3)c2)=NO1)B(O)O (some centres unmarked) [Example 34] , thanks. > 7.00

pIC50 lookup needed for CC(C)C[C@H](NC(=O)C1CC(c2cncc(-c3ccccc3)c2)=NO1)B(O)O (some centres unmarked) [Example 33] , thanks. > 7.00

pIC50 lookup needed for CC(C)C[C@H](NC(=O)C1(Cc2ccccc2)CC(CNC(=O)c2cc(C(C)C)on2)=NO1)B(O)O (some centres unmarked) [Example 182] , thanks. > 8.00

pIC50 lookup needed for Cc1cc(COCC2=NOC(Cc3ccccc3)(C(=O)N[C@@H](Cc3ccccc3)B(O)O)C2)ccn1 (some centres unmarked) [Example 277] , thanks. > 8.00

pIC50 lookup needed for CC(C)C[C@H](NC(=O)C1CC(c2ccc(Oc3ccccn3)cc2)=NO1)B(O)O (some centres unmarked) [Example 42] , thanks. > 6.60

pIC50 lookup needed for COC[C@@H](NC(=O)c1nccc2ccccc12)C1=NOC(Cc2ccccc2)(C(=O)N[C@@H](CC(C)C)B(O)O)C1 (some centres unmarked) [Example 185] , thanks. > 8.00

pIC50 lookup needed for COc1cccc(C(=O)NCC2=NOC(Cc3ccccc3)(C(=O)N[C@@H](Cc3ccccc3)B(O)O)C2)c1 (some centres unmarked) [Example 285] , thanks. > 8.00

pIC50 lookup needed for Cc1ccccc1CC1(C(=O)N[C@@H](CC(C)C)B(O)O)CC(CNC(=O)c2nccc3ccccc23)=NO1 (some centres unmarked) [Example 154] , thanks. > 8.00
